The following compounds are shown together with reported IC50 values.
# Tested on: Panc-1 cells
# assayRemarks: Growth inhibition assay, Panc-1 cells
# Assay type: cell-based, human
# studyConditions: Homo sapiens, PANC-1

# compound, unitAbbrev, IC50
data = [
    ("Nc1ccn([C@@H]2O[C@H](CO)[C@@H](O)C2(F)F)c(=O)n1 [Gemcitabine]", "µM", 0.023),
    ("O=c1[nH]cc(F)c(=O)[nH]1 [5-Flurouracil]", "µM", 9.18),
    ("Cc1nc(Nc2ncc(C(=O)Nc3c(C)cccc3Cl)s2)cc(N2CCN(CCO)CC2)n1 [Dasatinib]", "µM", 6.89),
    ("COc1cc([C@@H]2c3cc4c(cc3[C@@H](O[C@@H]3O[C@@H]5CO[C@@H](C)O[C@H]5[C@H](O)[C@H]3O)[C@H]3COC(=O)[C@H]23)OCO4)cc(OC)c1O [Etoposide]", "µM", 0.651),
    ("Nc1ncn([C@H]2C[C@H](O)[C@@H](CO)O2)c(=O)n1 [Decitabine]", "µM", 69),
    ("Nc1ncn([C@@H]2O[C@H](CO)[C@@H](O)[C@H]2O)c(=O)n1 [5-Azacytidine]", "µM", 68.8),
    ("CCC1=C[C@@H]2CN(C1)Cc1c([nH]c3ccccc13)[C@@](C(=O)OC)(c1cc3c(cc1OC)N(C)[C@H]1[C@@](O)(C(=O)OC)[C@H](OC(C)=O)[C@]4(CC)C=CCN5CC[C@]31[C@@H]54)C2 [Vinorelbine]", "µM", 0.103),
]

This collection of values is drawn from paper PMC2982901.
